Give measured viability at 28.5 h, 10 µM for each item. Keep answers brief.
Experiment: in vitro
Conditions: human, hela cells, % viability
Please format your answer as a value with the unit trailing.

O=C(COc1ccccc1)Nc1nnc(-c2ccccc2)o1 [CBK287599] | 99.8%
CC(c1ccc(F)c(F)c1)N(C)C(=O)Cn1cnc2c(c1=O)CCC2 (stereo not shown) [CBK306291] | 88.6%
CC(C)(C)OC(=O)NCc1ccc(-c2ccc(Nc3cccnc3)nc2)cc1 [CBK037804] | 95.3%
CCn1c(CN2CCCC2c2nc(N(C)C)ncc2-c2ccccc2)nc2ccccc21 (stereo not shown) [CBK286070] | 83.4%
CN(C)CC(C)(C)CNC(=O)C1(c2ccccc2)CCCC1 [CBK149532] | 107%

Would you mind giving viability at 28.5 h, 10 µM for every molecule in the list below?
1. COc1ccccc1NC(=O)CC1S/C(=N\N=C2/CCCc3ccccc32)N=C1O (stereo not shown) [CBK263748]
2. COC(=O)c1c(-c2ccc(F)cc2)csc1NC(=O)CSc1ncnc2sc3c(c12)CCC3 [CBK265976]
3. Cn1ncc2c1NC(=O)CC2c1c[nH]nc1-c1ccccc1 (stereo not shown) [CBK287941]
4. C=CCNC(=O)c1cnc(-c2ccc(Cl)cc2)c(-c2ccco2)c1 [CBK036738]

1: 102%; 2: 103%; 3: 99.5%; 4: 90.6%

Would you mind giving viability at 28.5 h, 10 µM for every molecule in the list below?
1. CSc1nc2ccc(S(=O)(=O)NCCOc3ccc(Cl)cc3)cc2s1 [CBK268219]
2. CC(Sc1nc(-c2ccccc2F)n[nH]1)C(=O)N1CCNC1=O (stereo not shown) [CBK295594]
3. O=C(CN1C(=O)N2CCN=C2c2ccccc21)N1CCCCC1 [CBK283865]

["81.9%", "106%", "91.1%"]

Would you mind giving viability at 28.5 h, 10 µM for every molecule in the list below?
1. CC1CC(=O)Nc2ccccc2N1C(=O)Cn1c(=O)cnc2ccccc21 (stereo not shown) [CBK297116]
2. Cc1cc(C)c(S(=O)(=O)Nc2ccccc2C(=O)NCc2ccco2)c(C)c1 [CBK266382]
3. COc1cccc(CC(=O)N2CCC[C@@H](N)[C@@H]2c2ccccc2F)c1 [CBK283455]

1. 95%
2. 98.2%
3. 84.5%

Would you mind giving viability at 28.5 h, 10 µM for every molecule in the list below?
1. COc1ccc2[nH]c3c(c2c1)CCOC31CCN(C(=O)Nc2ccc(C(C)C)cc2)CC1 [CBK047154]
2. NC(=O)CCNC(=O)c1ccc2[nH]ccc2c1 [CBK149082]
3. O=C1CSC(c2cccnc2)N1CCc1ccccn1 (stereo not shown) [CBK017292]
4. COc1ncc(-c2nccnc2NCCc2ccncc2)c(OC)n1 [CBK038074]

95.5%
102%
96.7%
96.7%

----------
Test: in vitro
Conditions: human, hela cells, % viability
Property label: viability at 28.5 h, 10 µM (%)
Numbers only, in %.

COC(=O)[C@@H]1Cc2ncn(C(C)C)c2CN1C(=O)c1ccccc1 | 82.2
CCOc1cccc2sc(Nc3nc4ccc(NC(C)=O)cc4s3)nc12 | 90.8
Nc1c(-c2ccc3c(c2)CCO3)cnc2ncccc12 | 96
CSc1nnc2c(n1)[nH]c1ccccc12 | 96.6
NC(=O)CN1CC2(CCN(CC3COc4ccccc4O3)CC2)c2ccccc21 (stereo not shown) | 89.4

Would you mind giving viability at 28.5 h, 10 µM for every molecule in the list below?
1. Cc1ccc(S(=O)(=O)NC[C@H]2O[C@@H](CC(=O)N3CCc4ccccc43)[C@H](O)[C@@H]2O)cc1
2. OCc1cc(N2CCOC3(CCCOC3)C2)ncc1F (stereo not shown)
3. CCC(NC1CCc2nc(COC)nn2C1)c1ccccc1O (stereo not shown)
4. Cc1nn(C)c(C)c1CN(C(=O)C(C)Oc1ccccc1F)C1CC1 (stereo not shown)
5. CN1CCCc2ccc(S(=O)(=O)NCCc3cn4ccccc4n3)cc21
6. c1ccc2sc([C@H]3CCNC3)nc2c1
7. c1cc(COc2cncc(N3CCCC3)n2)cs1

1. 91.3
2. 94.7
3. 92.1
4. 86.6
5. 82.8
6. 91.2
7. 102

Would you mind giving viability at 28.5 h, 10 µM for every molecule in the list below?
1. Cc1ccc(S(=O)(=O)N2CC[C@H](c3nnc(-c4ccccc4)o3)C2)cc1
2. O=C(CN1CCOCC1)N/N=C/c1cc2ccccc2nc1Cl
3. COc1cccc2c1cc(C(=O)NCCn1ccnc1C)n2C
4. Cc1ccccc1Nc1nc(N)nc(CN2CCCC2C(=O)N(C)C)n1 (stereo not shown)
5. CCCCOc1ccccc1NC(=O)CC1NCCNC1=O (stereo not shown)
6. Cc1noc(C)c1CN(C)C(C)C(=O)Nc1nccs1 (stereo not shown)
7. O=C(NC(c1cccc([N+](=O)[O-])c1)c1cc(Cl)c2cccnc2c1O)c1cccnc1 (stereo not shown)
8. O=C(Nc1cccnc1)c1ccc(CN2CCC(Cc3ccccc3)CC2)cc1

1: 111; 2: 101; 3: 101; 4: 81; 5: 94.7; 6: 105; 7: 92.5; 8: 94.9

Would you mind giving viability at 28.5 h, 10 µM for every molecule in the list below?
1. C=CCn1c(C)c(C)n2c3c(=O)n(CCN4CCOCC4)c(=O)n(C)c3nc12
2. COc1ccc(F)cc1-c1ccccc1CC1(C(=O)NCCc2ccccc2)CCOCC1
3. Cc1[nH]c(=O)[nH]c(=S)c1C(=O)Nc1ccc2c(c1)OCO2
4. Cc1cc(C)nc(SCC(=O)Nc2ccc(S(=O)(=O)NC3CCCCC3)cc2)n1
5. Nc1nnc(SCc2ccc(Br)cc2)s1
6. OCCn1c(S)nnc1-c1ccccc1

90.8
97.5
100
86
109
85.4

Would you mind giving viability at 28.5 h, 10 µM for every molecule in the list below?
1. Cc1nn(C)c(N2CCNCC2)c1NC(=O)COc1ccccc1 [CBK050249T]
2. Cc1cc(N2CCNCC2)c2ccccc2n1

1: 103; 2: 86.1

Would you mind giving viability at 28.5 h, 10 µM for every molecule in the list below?
1. O=C(CSc1ccccc1[N+](=O)[O-])Oc1ccccc1
2. Cc1ccc(S(=O)(=O)N2CCN(c3nc(NC(C)c4ccccc4)c4ccccc4n3)CC2)cc1 (stereo not shown)

1: 106; 2: 106

Would you mind giving viability at 28.5 h, 10 µM for every molecule in the list below?
1. NC(=O)c1cccc(-n2ncc(-c3cccnc3)n2)c1
2. CC(C)c1ccsc1C(=O)N1CCC2(C1)NC(=O)NC2=O (stereo not shown)
3. COc1ccc(C(NC(=O)COc2c(Cl)cc(C(=O)O)cc2Cl)C(C)C)cc1 (stereo not shown)
4. Cc1cc(COc2nccc(C(F)(F)F)n2)no1
5. Cc1nn(C)cc1-c1cncn1CCCOc1ccc(Cl)cc1
6. O=C(O)CN(c1cccc([N+](=O)[O-])c1)S(=O)(=O)c1ccccc1

81.6
87.1
87.3
88.7
87.5
85.6

Would you mind giving viability at 28.5 h, 10 µM for every molecule in the list below?
1. O=C1CSC(Nc2nc(-c3ccccc3)cs2)=N1
2. CN(CCN1CCCCC1)C(=O)C1(c2ccc(F)cc2)CC1
3. Brc1c(OCCNCCN2CCOCC2)ccc2ccccc12 [CBK268576G]
4. O=C(CSc1ncn(-c2ccccc2)n1)Nc1ccccc1Cl

1: 104; 2: 95.4; 3: 115; 4: 104

----------
Assay: in vitro
Details: human, hela cells, % viability
We label by threshold. Values of viability at 28.5 h, 10 µM strictly beneath 90% are Criterion met. Values of 90% and up are Criterion not met.

O=S(=O)(Cc1ccccc1)NCc1ccccn1 | Criterion not met
Cc1ccc(S(=O)(=O)N(CC(=O)NCc2ccco2)c2cc(C)cc(C)c2)cc1 | Criterion met
O=C(O)c1cccc(NS(=O)(=O)c2ccc(F)c(C(F)(F)F)c2)c1 | Criterion not met

For the next question, use this molecule.
Hello, is viability at 28.5 h, 10 µM of the following molecule strictly smaller than 90%? COc1ccc([N+](=O)[O-])cc1NC(=O)c1nc(C)c(C)nc1C(=O)O
Criterion met

----------
Assay: in vitro
Settings: human, hela cells, % viability
Property label: viability at 28.5 h, 10 µM (%)
Give bare numbers, in %.

Would you mind giving viability at 28.5 h, 10 µM for every molecule in the list below?
1. O=C(Cn1c(=O)cc(O)c2ccccc21)Nc1cccc(F)c1
2. CCCCN(C)C(=O)Cn1nc(C)c2ccccc2c1=O
3. COc1ccc(NC(=O)c2cc3nc(C)ccc3o2)cc1

[98.1, 81.4, 102]

Would you mind giving viability at 28.5 h, 10 µM for every molecule in the list below?
1. CC(C)N(C(=O)c1ccccc1-c1cnc2cccnn12)C(C)C
2. Cn1ccnc1C1(O)CCN(C(=O)Nc2ccccc2F)CC1
3. CC1CCCCC1NC(=O)CSc1nnc(CN2CCOCC2)n1C (stereo not shown)
4. Brc1ccsc1-c1csc(-c2ccccc2)n1

1. 97.8
2. 112
3. 102
4. 102
